test: NCI Yeast Anticancer Drug Screen. Data for the cln2 rad14 strain (AID 165);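 further: 0% = growth equal to vehicle treated cultures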; settings: S. cerevisiae cln2 rad14 strain, at 50.0 µM, hits give high values
Compounds without any hit were thinned out: in the full panel of roughly 79,000, 15% have a hit.
Quick list: growth inhibition per entry.
measurementKind: growth inhibition (%)

• CC1=C(CO)C(=O)O[C@@H]([C@@H](C)[C@H]2CC[C@H]3[C@@H]4C[C@@H](O)[C@@]5(O)CC=CC(=O)[C@]5(C)[C@H]4CC[C@]23C)C1 = -9.55
• CC(=O)Nc1ccc(/C=N/Nc2c3ccccc3nc3ccccc23)cc1 = -4.4
• C#CCOCCC(C(=O)O)C(=O)O = -1.7
• O=C(N/N=C\c1ccc(Cl)cc1Cl)c1ccc(F)cc1 = 0.3
• COC(=O)c1ccccc1/C=C1\Cc2cc3c(cc2C1=O)CCC3 = 5.65
• C[C@@H]1C(N2CCCC2)=CC(=O)OC1c1ccccc1 (stereo partly drawn) = -6.4
• CSC(=S)n1nc(C)c(N=Nc2ccccc2[N+](=O)[O-])c1C = 5.05
• COc1ccc2c(c1)c(=O)c1c(NCCCN(C)C)ccc3ncn2c31 = -1.7
• COC1=C(NCC(C)C)C(=O)C(OC)=C(NCC(C)C)C1=O = -57.7
• C/C(CC(=O)N1CCCCC1)=N\NC(N)=S = -10.5
• CC(=O)OC(C)C1CCCC1OC(C)=O (stereo not drawn) = 5.75
• Cn1c(=O)n2n(c1=O)[C@@H](c1ccccc1)[C@H]2c1ccccc1 = -5.85
• O=C(NNC(=O)c1ccc2ccccc2c1)c1ccc(F)cc1 = 3.05
• Clc1ccccc1CN1COc2c(ccc3ccccc23)C1 = 19.6
• CC(=O)OC1CC(OC(C)=O)C(OC(C)=O)CC1OC(C)=O (stereo not drawn) = -18.2
• COc1cc(C2NC(=O)C(C)(C)O2)cc(OC)c1OC (stereo not drawn) = -17.8
• O=C(Nc1c(Cl)c(Cl)c2c(c1Cl)Cc1cc(Cl)ccc1-2)C(Cl)Cl = 26.1
• O=C(O)c1cc(=O)c2cc(Cc3ccccc3)ccc2[nH]1 = 9.8
• CC(C)(C)OC(=O)NC(CCC(=O)OCc1ccccc1)C(=O)NCCCO (stereo not drawn) = -9.35
• CSc1nc(-c2ccccc2)c(C(=O)NC(C)CN2CCCCC2)s1 (stereo not drawn) = 11
• Cc1ccc(S(=O)(=O)NC2C(=O)c3ccccc3C(=O)C2n2cnc3ccccc32)cc1 (stereo not drawn) = -16.9
• Cc1cc(-c2ccc(Cl)cc2)c(C#N)c(=S)n1C1OC(CO)C(O)C(O)C1O (stereo not drawn) = 2.8
• O=[N+]([O-])c1ccc(Nc2nc3ccccc3s2)cc1 = -21.5
